All values here come from PubChem BioAssay (EPA / NIEHS).

SYSTEM_TESTED: Retinoic acid receptor alpha (Homo sapiens) (UniProt P10276)
Sequence (P10276 whole entry, looked up): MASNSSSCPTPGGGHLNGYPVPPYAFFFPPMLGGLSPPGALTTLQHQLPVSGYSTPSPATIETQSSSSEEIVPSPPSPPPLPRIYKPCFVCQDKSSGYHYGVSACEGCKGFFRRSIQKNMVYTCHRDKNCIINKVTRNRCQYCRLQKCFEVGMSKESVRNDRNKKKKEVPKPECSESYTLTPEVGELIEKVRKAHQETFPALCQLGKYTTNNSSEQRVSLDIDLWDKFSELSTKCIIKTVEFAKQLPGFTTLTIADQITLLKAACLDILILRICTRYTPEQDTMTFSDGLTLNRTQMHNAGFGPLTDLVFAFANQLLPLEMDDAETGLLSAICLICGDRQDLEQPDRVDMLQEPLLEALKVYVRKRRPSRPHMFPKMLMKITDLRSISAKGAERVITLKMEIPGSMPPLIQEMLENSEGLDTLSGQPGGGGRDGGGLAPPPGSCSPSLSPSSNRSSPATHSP
PROCEDURE_TEXT: ATG_DR5_RAR_CIS: Attagene CIS-FACTORIAL HepG2 Assay for human Retinoic Acid Receptor Alpha (RARE), DR5 submotif (AID 2282934)
CONDITIONS: HepG2 Attagene cis-factorial RARE DR5 reporter, mRNA; actives raise or lower the signal
Activity calls are given as the source filed them. Rule for the calls: active = hit-call score of the fitted dose curve at least 0.9, where 1 is the maximum; inactive = score below 0.9.
READOUT_LABEL: outcome

Task: What does the record list as outcome for CCCCCCCCCCCCCCCCC ?
Output: inactive

Task: Could you share which outcome value was measured for CSc1ccc(Cl)cc1 ?
Output: inactive

Task: Suppose we examine the compound O=c1cccc[nH]1 ; what outcome value has been reported?
Output: inactive

Task: Entry Nc1c(Br)cc([N+](=O)[O-])cc1Br : reported outcome = ?
Output: inactive

Task: Any idea what its outcome is? The compound is CCN=C1C=CC(=C(c2ccc(N(CC)CC)cc2)c2ccc(N(CC)CC)cc2)c2ccccc21
Output: inactive

Task: Can you share its outcome? I mean this compound: O=C(c1ccccc1)c1ccc(O)cc1O
Output: inactive

Consider the record given below.
Task: Please look up its outcome: CC(C)OC(=O)COc1ccc(Cl)cc1Cl
Output: inactive

* * *

PROCEDURE_TEXT: CCTE_Padilla_ZF_Score.Living: CCTE's 144 Hour Post-fertilization zebrafish Assay Score for Viability, Padilla Lab (AID 2284410);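 note: larval death at 6 dpf judged by absent heartbeat or coagulation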
Experimental: CCTE_Padilla_ZF_Phenotype_Score is a whole embryo, multiplexed assay using zebrafish ova exposed for 144 hours post fertilization on a 96-well plate.CCTE_Padilla_ZF_Score.Living is one of one assay component(s) measured or calculated from the CCTE_Padilla_ZF_Phenotype_Score assay. […] This assay endpoint, CCTE_Padilla_ZF_Score.Living, was analyzed in the positive analysis fitting direction relative to DMSO as the negative control and baseline of activity. […]
The source made the active and inactive calls. How the source made its calls: active means hit-call score of the fitted dose curve at least 0.9, where 1 is the maximum; inactive means score below 0.9.
READOUT_LABEL: outcome

Task: Reported outcome, compound O=S(=O)(O)CCC(F)(F)C(F)(F)C(F)(F)C(F)(F)C(F)(F)C(F)(F)C(F)(F)C(F)(F)F : ____
Output: inactive

Task: Find the recorded outcome belonging to O=C(O)C(F)(F)C(F)(F)C(F)(F)C(=O)O and report it.
Output: inactive

Task: So what does the record say about outcome for COC(F)(C(F)F)C(F)(F)F (stereo not drawn) ?
Output: inactive

* * *

Read-out: Tissue Factor, F3 (gene 2152)
PROCEDURE_TEXT: BSK_CASM3C_TissueFactor: BioMAP Diversity Plus: CASM3C Assay for Tissue Factor Biomarker Activity (AID 2283052);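 note: cell surface tissue factor protein level read by ELISA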
CONDITIONS: primary human coronary artery smooth muscle cells; actives raise or lower the signal
The source made the active and inactive calls. How the source made its calls: active means hit-call score of the fitted dose curve at least 0.9, where 1 is the maximum; inactive means score below 0.9.
READOUT_LABEL: outcome

A selection of reference data follows.
Task: Consider the compound shown here: O=S(=O)(O)CCC(F)(F)C(F)(F)C(F)(F)C(F)(F)C(F)(F)C(F)(F)C(F)(F)C(F)(F)F What is its recorded outcome?
Output: inactive

Task: Give its outcome value. Item: NC(=O)C(F)(F)C(F)(F)C(F)(F)F
Output: inactive

Task: What measured outcome goes with OC(O)C(F)(F)C(F)(F)F ?
Output: inactive

Task: Given the entry CNS(=O)(=O)C(F)(F)C(F)(F)C(F)(F)C(F)(F)C(F)(F)C(F)(F)C(F)(F)C(F)(F)F , report its measured outcome.
Output: inactive

Task: I'd like to know its outcome. The compound in question is OCC(O)CC(F)(F)C(F)(F)C(F)(F)C(F)(F)C(F)(F)C(F)(F)C(F)(F)C(F)(F)F (configuration not stated)
Output: inactive

Task: Form field: reported outcome of OCC(F)(F)C(F)(F)C(F)(F)CO
Output: inactive

More entries:
Task: State the recorded outcome for this entry: C=C(C)C(=O)OCC(F)(F)C(F)(F)C(F)(F)C(F)F
Output: inactive
